// provenance: patent US20230287120A1

- testedSystem: T1, human DLL3 extracellular domain (ECD) with C-terminal 8xHis tag and Avi tag (human, UniProt Q9NYJ7 27-492)
- T1 construct: extracellular domain; Expressed in Expi293, purified by IMAC and SEC; also called huDLL3; not shown: Avi tag
- T1 sequence: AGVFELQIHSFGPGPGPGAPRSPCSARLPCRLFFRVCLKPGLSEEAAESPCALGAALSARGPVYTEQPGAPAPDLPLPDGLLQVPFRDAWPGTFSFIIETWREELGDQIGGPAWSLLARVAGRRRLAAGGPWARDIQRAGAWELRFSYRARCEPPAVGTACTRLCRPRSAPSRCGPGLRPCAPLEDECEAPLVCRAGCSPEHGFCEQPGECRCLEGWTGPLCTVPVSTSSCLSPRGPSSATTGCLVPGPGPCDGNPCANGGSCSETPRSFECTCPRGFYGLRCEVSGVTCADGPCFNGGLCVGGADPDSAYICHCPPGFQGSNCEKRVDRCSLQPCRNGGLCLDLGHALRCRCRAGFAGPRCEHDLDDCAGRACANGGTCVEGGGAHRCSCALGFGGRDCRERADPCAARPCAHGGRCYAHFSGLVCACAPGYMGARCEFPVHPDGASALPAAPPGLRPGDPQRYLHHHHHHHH
- assayComment: SPR (Biacore), 37 C; IgG captured on chip, human DLL3 ECD in solution; 1:1 Langmuir fit
Record form. Attribute: Kd. Fill in for each entry.
One number for each entry, in nM.

binder | Kd / nM
anti-DLL3 antibody 6F8 (IgG) (antibody, V domains shown) VH: QVQLVQSGAEVKKPGSSVKVSCKASGGTFTNYCISWVRQAPGQGLEWMGGIIPIFGTTNYAQTFQGRVTITADKSTSTAYMELSSLRSEDTAVYYCARDNGDRYYYDMDVWGQGTTVTVSS VL: QSVLTQPPSVSAAPGQKVTISCSGSSSNIGNNYVSWYQQLPGTAPKLLIYDNNKRPSGIPDRFSGSKSGTSATLGITGLQTGDEADYYCGTWDSSLSAVVFGGGTKLTVL | 26.5

For each of the binders below, note its Kd.
1. anti-DLL3 antibody 7F9 (IgG) (antibody, V domains shown, Full-length monoclonal antibody (IgG)) VH: EVQLVESGGGLVQPGGSLRLSCAASGFTFSSHDMHWVRQATGKGLEWVSAIGIAGDTYYSGSVKGRFTISRENAKNSLYLQMNSLRAGDTAVYYCARANWGEGAFDIWGQGTMVTVSS VL: DIQMTQSPSSLSASVGDRVTITCRASQGISDYLAWYQQKPGKIPKLLIYAASTLQSGVPSRFSGSGSGTDFTLTISSLQPEDVATYYCQKYNSVPLTFGGGTKVEIK
2. anti-DLL3 antibody 26C8 (IgG) (antibody, V domains shown, Full-length monoclonal antibody (IgG)) VH: QVQLQESGPGLVKPSETLSLTCTVSDNSISNYYWSWIRQPPGKGLEWIAYIYYSGTTNYNPSLKSRVTISLDTSKNQFSLQLSSVTAADAAVYYCARVFHWGFAFDIWGQGTMVTVSS VL: EIVLTQSPGTLSLSPGERATLSCRASQRVSNTYLAWYQQNPGQAPRLLIYGASSRATGIPDRFSGSGSGTDFTLTISRLEPEDFAVYYCQQYGTSPLTFGGGTKVEIK

[12.7, 5.54]
